System: HCT-15

| molecule | experimentalSystem | GI50 |
| --- | --- | --- |
| C=CCc1cc(OC)c2c(c1)C(O)CC(c1ccc(OC)c(OC)c1)O2 (stereo unspecified) | HCT-15 | > 100 µM |
| CN(C)CC/C(=N\Nc1ccc([N+](=O)[O-])cc1)c1ccccc1 | HCT-15 | 13.6 µM |
| CCOC(=O)CCNC(=O)c1cc(C)cc2c1Oc1c(cc(C)cc1C(=O)NCCC(=O)OCC)S2 | HCT-15 | > 100 µM |
| O=C(NC(=O)c1ccccc1)OC(c1ccccc1)C1CO1 (stereo unspecified) | HCT-15 | > 100 µM |
| CCCCCC#COC1CC(C)CC[C@@H]1C(C)C (stereo partly specified) | HCT-15 | > 100 µM |
| O=C(Cn1nnc(-c2ccccc2)n1)N/N=C/c1cn(Cc2ccc(Cl)cc2Cl)c2ccccc12 | HCT-15 | > 100 µM |
| O=C1c2ccccc2C(=O)C1C(c1ccc(F)cc1)C1C(=O)c2ccccc2C1=O | HCT-15 | > 100 µM |
| CC(=O)OC1CC2C(C)(C)C(=O)C=C[C@]2(C)C2CCC3(C)C(=CCC3[C@H](CO)C[C@H](O)C(=O)C(C)(C)O)[C@]12C (stereo partly specified) | HCT-15 | 17.8 µM |
| Cn1cc(-c2n[nH]c(-c3ccc(Cl)cc3)nc2=O)c2ccccc21 | HCT-15 | 1.1 µM |
| COc1ccc2c(n1)Sc1nc3ccccc3nc1N2 | HCT-15 | 24.9 µM |
| CC(C)OP(=O)(OC(C)C)c1ncn(-c2ccc([N+](=O)[O-])cc2)n1 | HCT-15 | > 100 µM |
| COc1ccccc1/C=N/Nc1nnc2c3ccccc3c3ncccc3c2n1 | HCT-15 | > 100 µM |
| O=C(O)C12C3CCCC1C2CC3 (stereo unspecified) | HCT-15 | > 100 µM |
| Cc1cc2c(cc1C)C(=O)/C(=C/c1ccccc1C(=O)O)C2 | HCT-15 | 36.6 µM |
| Cc1cccc2c(=O)c3cccc([C@H](C)C(=O)O)c3oc12 | HCT-15 | > 100 µM |
| Cn1c2ccccc2c(=NNc2ccc(S(=O)(=O)N=C(N)N)cc2)c2ccccc21 | HCT-15 | 10.2 µM |
| Nc1nc(Cl)cc(NCC2(CO)CCCC2)n1 | HCT-15 | > 100 µM |
| CC(C)(C)[Si](C)(C)OCC1C=CC(n2cnc3c(N)ncnc32)O1 (stereo unspecified) | HCT-15 | 53.1 µM |
| CC(C)[Si]1(C(C)C)OCC2OC(n3ccc(=O)[nH]c3=O)C([Se]c3ccccc3)C2O[Si](C(C)C)(C(C)C)O1 (stereo unspecified) | HCT-15 | 4.39 µM |
| O=[N+]([O-])/C(Cl)=C(\NCCN/C(C(Cl)=C(Cl)Cl)=C(/Cl)[N+](=O)[O-])C(Cl)=C(Cl)Cl | HCT-15 | 36.6 µM |
| Clc1nc2n(c1/C=C/c1cccs1)CCS2 | HCT-15 | 37 µM |
| CC(=O)O/C=C1/C[C@H]2[C@@H]3CCC4CC(C(C)=O)CC[C@]4(C)[C@H]3CC[C@]2(C)C1=O (stereo partly specified) | HCT-15 | 14.8 µM |
| O=C(c1ccccc1)c1c(C(F)(F)F)[n+]([O-])c2ccccc2[n+]1[O-] | HCT-15 | 0.785 µM |
| CCOC(=O)COc1ccc(/C=C/C(=O)c2ccc(OC)cc2)cc1 | HCT-15 | 24.4 µM |
| CC(C)(C)[Si](C)(C)Oc1ccc(C2CNC(=O)C23CCC(=O)N3Cc2ccccc2)cc1 (stereo unspecified) | HCT-15 | 12.8 µM |
| C[C@]12CC[C@H](O)CC1=CC[C@@H]1C2CC[C@]2(C)Nc3c(cnn3-c3ccccc3)CC12 (stereo partly specified) | HCT-15 | 2.23 µM |
| O=C1CCCCC12CCC/C2=N\O (stereo unspecified) | HCT-15 | > 100 µM |
| CN(C)/N=N/c1c[nH]nc1C(N)=O | HCT-15 | 64.1 µM |
| COc1cccc(C(C#N)NC23CC4CC(CC(C4)C2)C3)c1 (stereo unspecified) | HCT-15 | > 100 µM |
| CC(C)(C)NC(=O)/C(=C\Sc1ccccc1)c1ccc2c(c1)OCO2 | HCT-15 | 30.8 µM |
| Cc1ccccc1C(CCCO)C(=O)O (stereo unspecified) | HCT-15 | > 100 µM |
| O=C1c2cc(Br)ccc2-c2ccc3c4ccc5c6c(ccc(c7ccc1c2c73)c64)C(=O)c1cc(Br)ccc1-5 | HCT-15 | > 100 µM |
| N#Cc1nc(/C=C/c2cccnc2)oc1N | HCT-15 | > 100 µM |
| CCSC1=C(C)N(/C=N/C(C)(C)C)CC1 | HCT-15 | > 100 µM |
| CC1C(=O)C23OC[C@@]1(C)C1(O)CC[C@@H](C)[C@]21CC3=O (stereo partly specified) | HCT-15 | > 100 µM |
| Cc1sc(/N=C/c2c[nH]c3ccccc23)c(C#N)c1C | HCT-15 | 24 µM |
